- experimental.protocol: chemical genetic growth profiling, strain panel (AID 1159580);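 also: tested at 20 µM; growth read once vehicle control cultures reached saturation at 30 °C; 1 = growth at the plate median or of vehicle wells; lower values mean less growth of the strain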
- conditions: S. cerevisiae deletion strains, growth OD, locus YKL190W, strain CNB1, active compounds read low
Out of some 5,500 compounds screened, about 2,000 (36%) were called active. Roughly 18% stayed inconclusive and do not appear here. This is one part of the list.
readout.label: normalized growth
// no unit string in output, number only

Study these solved cases before continuing.
{"compound": "O=C(OCC(O)CO)c1ccccc1Nc1ccnc2cc(Cl)ccc12 (stereo not given)", "normalized growth": 0.984}
{"compound": "Cc1ccc(C)n1-c1ccc(C(=O)NNC(=O)c2ccc3nccnc3c2)cc1", "normalized growth": 0.991}
{"compound": "CCOC(=O)N=Nc1c(O)[nH]c2ccc(F)cc12", "normalized growth": 1.01}
{"compound": "OCC(O)CN1CCN(c2ccccc2)CC1 (stereo not given)", "normalized growth": 1.01}
{"compound": "C[n+]1c2cc(N)ccc2cc2ccc(N)cc21", "normalized growth": 0.85}

Reported normalized growth, compound `CCC[C@H](N[C@@H](C)C(=O)N1[C@H](C(=O)O)C[C@@H]2CCCC[C@@H]21)C(=O)OCC` : ____
1.02

Requested field: normalized growth. Item: `CC(C)(C)S(=O)(=O)/C(C#N)=C/c1ccc(F)cc1F`
1.02

normalized growth lookup needed for `COc1ccc(-c2coc3cc(O)ccc3c2=O)c(OC)c1` , thanks.
1

###

- experimental.protocol: chemical genetic growth profiling, strain panel (AID 1159580);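 also: tested at 20 µM; growth read once vehicle control cultures reached saturation at 30 °C; 1 = growth at the plate median or of vehicle wells; lower values mean less growth of the strain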
- conditions: S. cerevisiae deletion strains, growth OD, locus YGL227W, strain vid30
The whole screen tested about 5,500 compounds, of which about 2,000 (36%) were called active. About 18% were inconclusive and are not listed. No stated cut-off is given here; in the data, active means normalized growth mostly below about 0.91 (no sharp cut-off); inconclusive means no clear call, values can overlap the other calls; inactive means mostly above about 0.92. The list shows a part of the results.
Outcome field: choose from 1 for active, -1 for inactive

{"compound": "CCCc1cc(C(N)=S)ccn1", "class.label": -1}
{"compound": "CCN1CCCC(OC(=O)C(c2ccccc2)c2ccccc2)C1 (centres undefined)", "class.label": -1}
{"compound": "COc1cc([C@@H]2c3cc4c(cc3C(OC3O[C@@H]5COC(C)O[C@H]5[C@H](O)[C@H]3O)C3COC(=O)[C@@H]32)OCO4)cc(OC)c1O (some centres undefined)", "class.label": -1}
{"compound": "Nc1nc(=S)c2[nH]cnc2[nH]1", "class.label": -1}
{"compound": "CC[C@@H](C(=O)C(C)[C@@H](O)[C@H](C)CCc1ccc(C)c(O)c1C(=O)O)C1OC(CC)(C2CC[C@](O)(CC)[C@H](C)O2)C[C@@H]1C (some centres undefined)", "class.label": 1}

How did this test come out for OCC(O)CN1CCN(c2ccccc2)CC1 (centres undefined) ?
-1

Could you kindly confirm the outcome this assay logged for C[C@]12CCC(=O)C=C1C=CC1C2CC[C@@]2(C)C1CC[C@@]2(O)CCC(=O)O (some centres undefined) ?
-1

Recorded call for C[C@]12CCC(=O)C=C1C=CC1C2CC[C@@]2(C)C1CC[C@@]21CCC(=O)O1 (some centres undefined) ?
-1

Please share the test call associated with COc1cc([C@@H]2c3cc4c(cc3[C@@H](O)C3COC(=O)C32)OCO4)cc(OC)c1O (some centres undefined) .
-1

###

- experimental.protocol: chemical genetic growth profiling, strain panel (AID 1159580);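 also: tested at 20 µM; growth read once vehicle control cultures reached saturation at 30 °C; 1 = growth at the plate median or of vehicle wells; lower values mean less growth of the strain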
- conditions: S. cerevisiae deletion strains, growth OD, locus YNL183C, strain NPR1
The campaign covered roughly 5,500 compounds. About 2,000 (36%) were called active. Another 18% or so got no clear call; they are omitted. No stated cut-off is given here; in the data, active means normalized growth mostly below about 0.91 (no sharp cut-off); inconclusive means no clear call, values can overlap the other calls; inactive means mostly above about 0.92. The list shows a part of the results.
Response enum: yes for active, no for inactive

{"compound": "N#C/C(=N/Nc1ccc(F)cc1)S(=O)(=O)c1ccc(Cl)cc1", "class.label": "no"}
{"compound": "CC(C)(C)c1ccc(N/N=C(\\C#N)C(N)=O)cc1", "class.label": "yes"}
{"compound": "C/C=C(\\C)C(=O)O[C@H]1C[C@@H](OC(C)=O)[C@@]2(C(=O)OC)CO[C@@H]3C2[C@]12CO[C@](O)(C(=O)OC)[C@H]2[C@](C)(C12O[C@@]1(C)[C@H]1C[C@@H]2OC2OC=C[C@@]21O)[C@@H]3O (some centres undefined)", "class.label": "no"}

Lab note: next compound to report on.
Just curious, what result did `N#C/C(=N/Nc1ccc(F)cc1)C(=O)c1ccccc1` get here?
no
